- TEST_DETAILS: recombinant UMI read abundance after kanamycin selection (control-corrected) (log10(CPM+1)); higher = more efficient recombination; extreme values may be limits of the assay; sequences stand for … in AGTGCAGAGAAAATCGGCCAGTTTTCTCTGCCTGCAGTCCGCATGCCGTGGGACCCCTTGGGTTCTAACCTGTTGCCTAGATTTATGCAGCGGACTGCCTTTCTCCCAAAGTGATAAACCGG…AGGTTGGTTTCACT; site = the 11-nt donor;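 further: IS621 bridge recombinase in Escherichia coli cells against a fixed T5 target plasmid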
ENDPOINT: recombinant UMI read abundance (log10)
The response must contain the number and no unit.

In plain terms, AACTATTCATGGACCGGTTTTCCCGGTAATCCGTATTTGCG (site AACTATTCTCG) has a documented recombinant UMI read abundance (log10) of 2.02

Documented recombinant UMI read abundance (log10) of ACAGTCTCATGGACCGGTTTTCCCGGTAATCCGTATTTGGA (site ACAGTCTCTTC) : 2.89

So for CAGATGGCATGGACCGGTTTTCCCGGTAATCCGTATTTGTA (site CAGATGGCTTA) , the logged recombinant UMI read abundance (log10) turned out to be 2.68

In plain terms, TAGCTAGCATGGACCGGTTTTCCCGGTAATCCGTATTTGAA (site TAGTTAGCTTT) has a documented recombinant UMI read abundance (log10) of 0.0249

Quick note, recombinant UMI read abundance (log10) for CGCCCTACATGGACCGGTTTTCCCGGTAATCCGTATTTGCT (site CGCCATACTAG) landed at 0

Quick note, recombinant UMI read abundance (log10) for CTCCCTTCATGGACCGGTTTTCCCGGTAATCCGTATTTGAG (site CTCCCTTCTCT) landed at 0.898

Kindly note the recorded recombinant UMI read abundance (log10) for CGATCGACATGGACCGGTTTTCCCGGTAATCCGTATTTGTG (site CGATCGACTCA) , which is 0.139

The sequence identified as ACATGCGCATGGACCGGTTTTCCCGGTAATCCGTATTTGGT (site ACATGCGCTAC) registered its recombinant UMI read abundance (log10) at 1.02

Quick note, recombinant UMI read abundance (log10) for AACCGGCCATGGACCGGTTTTCCCGGTAATCCGTATTTGAT (site AACCGTCCTAT) landed at 0.0213

recombinant UMI read abundance (log10) in this record for AGGAAGACATGGACCGGTTTTCCCGGTAATCCGTATTTGTA (site AGGAAGACTTT) : 1.8

// CCAGGTGCATGGACCGGTTTTCCCGGTAATCCGTATTTGAT (site CGAGGTGCTAT) : recombinant UMI read abundance (log10) value = 0.0036

Note to self: recombinant UMI read abundance (log10) recorded for GCGAAAACATGGACCGGTTTTCCCGGTAATCCGTATTTGCT (site GCGAAAACTTG) was 0

Lab book: recombinant UMI read abundance (log10) of CGCCTAGCATGGACCGGTTTTCCCGGTAATCCGTATTTGTT (site TGCCTAGCTAA) noted as 0.00877

The reported recombinant UMI read abundance (log10) of the sequence GAAGATTCATGGACCGGTTTTCCCGGTAATCCGTATTTGAT (site GAAGATTCTAC) was 0.00538

Item: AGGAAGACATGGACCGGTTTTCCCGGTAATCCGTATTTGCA (site AGGAAGGCTAG) | recombinant UMI read abundance (log10): 0

// recombinant UMI read abundance (log10) lookup, sequence = CCCGGTCCATGGACCGGTTTTCCCGGTAATCCGTATTTGTA (site CCCGGTCCTTT) , result: 0.041

Query CCCCACTCATGGACCGGTTTTCCCGGTAATCCGTATTTGTA (site CCCCACTCTTA) yields recombinant UMI read abundance (log10) of 2.01

The sequence identified as CAACCAGCATGGACCGGTTTTCCCGGTAATCCGTATTTGCT (site CAAGCAGCTAG) registered its recombinant UMI read abundance (log10) at 0

Record summary for CGATCGACATGGACCGGTTTTCCCGGTAATCCGTATTTGTT (site AGATCGACTAA) : reported recombinant UMI read abundance (log10) = 0.0131

recombinant UMI read abundance (log10) reading for CTGGTATCATGGACCGGTTTTCCCGGTAATCCGTATTTGAA (site CTGGTATCTTT) : 2.5

Query GGAGTTGCATGGACCGGTTTTCCCGGTAATCCGTATTTGGT (site GGAGTGGCTAC) yields recombinant UMI read abundance (log10) of 0.00345

TCGAATTCATGGACCGGTTTTCCCGGTAATCCGTATTTGCC (site TCGAATTCTGG) yielded recombinant UMI read abundance (log10) of 0

Lab note: CGCCTAGCATGGACCGGTTTTCCCGGTAATCCGTATTTGTT (site CGCCTAGCTAA) gave recombinant UMI read abundance (log10) of 0

Kindly note the recorded recombinant UMI read abundance (log10) for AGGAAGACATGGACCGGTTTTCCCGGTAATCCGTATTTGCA (site AGGCCGACTTG) , which is 0.00452

Lab note: CGAAGTGCATGGACCGGTTTTCCCGGTAATCCGTATTTGGG (site CGAAGTGCTCC) gave recombinant UMI read abundance (log10) of 0.671

recombinant UMI read abundance (log10) reading for CAGTCGACATGGACCGGTTTTCCCGGTAATCCGTATTTGGG (site CAGTGGACTCC) : 0.0181

# recombinant UMI read abundance (log10) (sequence: CGTGAAACATGGACCGGTTTTCCCGGTAATCCGTATTTGTT (site CGTGCAACTAA) ) is 0

Form field recombinant UMI read abundance (log10), entry AATTAGGCATGGACCGGTTTTCCCGGTAATCCGTATTTGGA (site AATTAAGCTTC) : 0.133

Short answer for CAACTAACATGGACCGGTTTTCCCGGTAATCCGTATTTGGA (site CTACTAACTTC) : recombinant UMI read abundance (log10) was 0.341

Documented recombinant UMI read abundance (log10) of GTACTCGCATGGACCGGTTTTCCCGGTAATCCGTATTTGTC (site GTACTCGCTGA) : 2.42

The sequence ATTGAGTCATGGACCGGTTTTCCCGGTAATCCGTATTTGGT (site ATTGAGACTAC) showed recombinant UMI read abundance (log10) equal to 0.0845

Per the records, this sequence ( TCATACACATGGACCGGTTTTCCCGGTAATCCGTATTTGCA (site TCATACGCTTG) ) has recombinant UMI read abundance (log10) equal to 1.36

Reported recombinant UMI read abundance (log10) of GCGTCAACATGGACCGGTTTTCCCGGTAATCCGTATTTGCG (site GCGTCAACTCG) : 0.00614

The sequence identified as TGGAAGTCATGGACCGGTTTTCCCGGTAATCCGTATTTGCA (site AGGAAGACTTG) registered its recombinant UMI read abundance (log10) at 0.00562

Entry GGTACGTCATGGACCGGTTTTCCCGGTAATCCGTATTTGGT (site GGTACGTCTAG) ; recombinant UMI read abundance (log10) = 0

Entry GTTGAGACATGGACCGGTTTTCCCGGTAATCCGTATTTGGT (site TTTGAGACTAC) ; recombinant UMI read abundance (log10) = 0.683
